Recorded self-aminoacylation, one value per entry.
test system: biotinyl-Trp-oxazolone; assay: self-aminoacylation, catalytic enhancement (BWO) (fold over background); higher = more active; k-Seq, kA / k0A0; sequences stand for … in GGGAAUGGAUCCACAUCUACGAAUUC…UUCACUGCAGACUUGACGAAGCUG
Variants at the floor of the assay were thinned out.

chain	self-aminoacylation
AAGUUAGCUAAUAGUCGCAUG [Fam3.1 aminoacylation ribozyme variant]	1.64
CUACUUCAAAGAAUCCGUCUG [Fam1A.1 aminoacylation ribozyme variant]	0.738
AUUCACCUAGAUCAUGGGGUG [Fam2.2 aminoacylation ribozyme variant]	4.68
GUACUUUAAACAAUCGGUCUG [Fam1A.1 aminoacylation ribozyme variant]	2.08
AUCAUCCUGGUCAUCGAGUGA [Fam2.1 aminoacylation ribozyme variant]	10.5
AUUACCCUUGUCAUCCAGUGA [Fam2.1 aminoacylation ribozyme variant]	3.96
CUACUUAAAACUAUCGGUCUG [Fam1A.1 aminoacylation ribozyme variant]	0.746
AUUACCCAGGUCAUCGGGUGA [Fam2.1 aminoacylation ribozyme variant]	11
CCCCAAUUCAAGCAAUCGGUC [Fam1B.1 aminoacylation ribozyme variant]	7.09
CUACUUCAAACAAUCGGAGUG [Fam1A.1 aminoacylation ribozyme variant]	3.77
AGACACCUAGGUCAUCGGGUG [Fam2.2 aminoacylation ribozyme variant]	4.31
AAGUUUGGUAAUCGUCGCAAG [Fam3.1 aminoacylation ribozyme variant]	1.52
AUUCACUUAGGACAUCGGGUG [Fam2.2 aminoacylation ribozyme variant]	2.78
UUUACCCUGGUCACCGAGUGA [Fam2.1 aminoacylation ribozyme variant]	8
AAUACCAUGGUCAUCGAGUGA [Fam2.1 aminoacylation ribozyme variant]	7.7
AUUACCCUGGUUACCGAGUGA [Fam2.1 aminoacylation ribozyme variant]	12.3
AUUCACCAAGGUCAUUGGGUG [Fam2.2 aminoacylation ribozyme variant]	6.53
CUACUUCAAACAAUCUGUUUG [Fam1A.1 aminoacylation ribozyme variant]	0.635

---

Measured self-aminoacylation values are reported for all entries that follow.
tested on: biotinyl-Phe-oxazolone; assay: self-aminoacylation, catalytic enhancement (BFO) (fold over background); higher = more active; k-Seq, kA / k0A0; sequences stand for … in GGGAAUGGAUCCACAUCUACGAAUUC…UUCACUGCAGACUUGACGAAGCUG
Fewer inactive variants are shown than the library holds.

chain	self-aminoacylation
AUUCACCUAGGUCUUCGGGUA [Fam2.2 aminoacylation ribozyme variant]	17.4
UUACUUCAAGCAAUCGGUCUG [Fam1A.1 aminoacylation ribozyme variant]	5.97
AAGUUCGCUAAUAGUCGCUAG [Fam3.1 aminoacylation ribozyme variant]	1.34
AUUAACCUGGGUCAUCGGGUG [Fam2.2 aminoacylation ribozyme variant]	39.6
AUUAACCUAGGUCAUCGGGCG [Fam2.2 aminoacylation ribozyme variant]	4.51
AUUCACCUAGCUCAUCCGGUG [Fam2.2 aminoacylation ribozyme variant]	16.5
CCACACUCCAAGCAAACGGUC [Fam1B.1 aminoacylation ribozyme variant]	1.06
AUUACCCUGGUCAUCUAGUGU [Fam2.1 aminoacylation ribozyme variant]	9.89
AUUCACCUAGGUCAUCGCGUG [Fam2.2 aminoacylation ribozyme variant]	100
AUUCAGCUAGGUCAUGGGGUG [Fam2.2 aminoacylation ribozyme variant]	17.8
AAGUUUGCUAGUACUCGCAAG [Fam3.1 aminoacylation ribozyme variant]	0.836
CAGUUUGCUAAUAGGCGCAAG [Fam3.1 aminoacylation ribozyme variant]	0.95
CUUCACCUAGGUCAUCGGGUG [Fam2.2 aminoacylation ribozyme variant]	34.6
AAGUUUGCUGCUAGUCGCAAG [Fam3.1 aminoacylation ribozyme variant]	2.64
GUACUUCAAACAUUCGGUCUG [Fam1A.1 aminoacylation ribozyme variant]	6.13
CGACUUCAAACAAUCGGUGUG [Fam1A.1 aminoacylation ribozyme variant]	10.9
CAACUUCAGACAAUCGGUCUG [Fam1A.1 aminoacylation ribozyme variant]	2.46
CCACACUUCAAGCAAGCGUUC [Fam1B.1 aminoacylation ribozyme variant]	0.905
